Here the recorded kon is given for each entry.
- target-or-test-system: T1, recombinant extracellular domain of human BAFF-R (Homo sapiens, UniProt Q96RJ3)
- T1 construct: The antigen was commercial, recombinant extracellular domain of human BAFF-R; purchased
- test-description: Biacore analysis of binding affinity of humanized BAFF-R antibody variants

# molecule, kon [M⁻¹ s⁻¹]
records = [
    ("Humanized HC1 + LC2: humanized C90 variant, heavy chain variant 1 with light chain variant 2 (antibody, V domains shown) VH: QVQLQESGPGLVKPSQTLSLTCTVSGDSITSGYWNWIRQHPGKGLEYIGYISYSGSTYYNPSLKSRVTISRDTSKNQFSLKLSSVTAADTAVYYCASPNYPFYAMDYWGQGTLVTVSS VL: DIVLTQSPATLSLSPGERATLSCRASESVDNYGISFMNWFQQKPGQAPRLLIYAASNRATGIPARFSGSGSGTDFTLTISSLEPEDFAVYYCQQSKEVPWTFGGGTKVEIKRTV", 620000),
    ("Humanized HC2 + LC1 (antibody, V domains shown) VH: EVQLQESGPGLVKPSQTLSLTCTVSGDSITSGYWNWIRQHPGKGLEYIGYISYSGSTYYNPSLKSRVTISRDTSKNQYSLKLSSVTAADTAVYYCASPNYPFYAMDYWGQGTLVTVSS VL: EIVLTQSPATLSLSPGERATLSCRASESVDNYGISFLNWFQQKPGQAPRLLIYAASNRATGIPARFSGSGSGTDFTLTISSLEPEDFAVYYCQQSKEVPWTFGGGTKVEIKRTV", 770000),
    ("Humanized HC3 + LC1 (antibody, V domains shown) VH: EVQLQESGPGLVKPSETLSLTCSVSGDSITSGYWNWIRQPPGKGLEYIGYISYSGSTYYNPSLKSRVTISRDTSKNQYSLRLSSVTAADTALYYCASPNYPFYAMDYWGQGTRVTVSS VL: EIVLTQSPATLSLSPGERATLSCRASESVDNYGISFLNWFQQKPGQAPRLLIYAASNRATGIPARFSGSGSGTDFTLTISSLEPEDFAVYYCQQSKEVPWTFGGGTKVEIKRTV", 820000),
]
